# Tested on: RGS8 (Homo sapiens (Human), UniProt P57771)
# Sequence (P57771 other isoform, or with tags, fused parts or gaps): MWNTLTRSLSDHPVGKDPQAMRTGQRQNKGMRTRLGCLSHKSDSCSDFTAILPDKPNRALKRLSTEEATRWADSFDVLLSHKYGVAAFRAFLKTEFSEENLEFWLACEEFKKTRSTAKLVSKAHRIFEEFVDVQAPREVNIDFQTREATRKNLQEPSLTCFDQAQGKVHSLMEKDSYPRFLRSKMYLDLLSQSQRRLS
# Protocol: FCPIA: Gαo binding to RGS8
# Condition details: Table 3
Quantity name: RGS8 Hill Slope

Below: 6 molecules and their reported RGS8 Hill Slope.
>  <Smiles code>
O=c1sn(-c2cccc(C(F)(F)F)c2)c(=O)n1Cc1ccc(F)cc1

>  <RGS8 Hill Slope>
−1.14

$$$$
>  <Smiles code>
COc1ccc(-n2sc(=O)n(Cc3ccccc3)c2=O)cc1

>  <RGS8 Hill Slope>
−1.00

$$$$
>  <Smiles code>
Cc1cccc(-n2sc(=O)n(Cc3ccccc3)c2=O)c1

>  <RGS8 Hill Slope>
−0.73

$$$$
>  <Smiles code>
O=c1sn(-c2ccc(Cl)c(Cl)c2)c(=O)n1Cc1ccccc1

>  <RGS8 Hill Slope>
−1.62

$$$$
>  <Smiles code>
COc1ccc(Cn2c(=O)sn(-c3ccc(Cl)c(Cl)c3)c2=O)cc1

>  <RGS8 Hill Slope>
−1.50

$$$$
>  <Smiles code>
O=c1sn(-c2cccc(Cl)c2)c(=O)n1Cc1ccccc1

>  <RGS8 Hill Slope>
−0.87

$$$$

(P) O=c1sn(-c2ccc(Cl)cc2)c(=O)n1Cc1ccc(Cl)cc1
(Q) CCCCn1c(=O)sn(C(C)(C)C)c1=O
-- ask So which one has the bigger RGS8 Hill Slope here, P or Q ? Refer to your chosen item by its label in the answer.
-- reply Q
(Q: −0.70, P: −1.36)
